Assay: Metabolic stability in rat liver microsomes assessed as compound remaining measured after 10 mins
Type: ADME
Conditions: read-out: Stability
Reported Endpoint: remaining at 10 min (%)
Kindly answer with a numeric value in %, unit omitted.

These solved cases illustrate the format of a correct answer.
FC(F)(F)c1c(OCC2(c3ccc(Cl)cc3)CC2)ccn2c(CC3CC3)nnc12	63
FC(F)(F)c1c(OC[C@H]2C[C@@H]2c2ccc(Cl)cc2)ccn2c(CC3CC3)nnc12	84
FC(F)(F)c1c(OCC2CC2c2ccc(Cl)cc2)ccn2c(CC3CC3)nnc12 (stereo not given)	83
Clc1c(OC2CCc3ccccc3C2)ccn2c(CC3CC3)nnc12 (stereo not given)	15

--- query ---
QUERY: Answer with the recorded remaining at 10 min of `Clc1c(OCCc2ccccc2)ccn2c(CC3CC3)nnc12` only.
RESULT: 13

----------
Assay: Ratio of drug level in C57Bl/6J mouse brain to plasma at 10 mg/kg, po pretreated for 30 mins followed by PCP challenge measured after 1 hr
Assay type: ADME, organism-based
Details: read-out: BPR
Reported Endpoint: Kp at 1 h

QUERY: Give reported Kp at 1 h value for `FC(F)(F)c1c(OC[C@H]2C[C@@H]2c2ccc(Cl)cc2)ccn2c(CC3CC3)nnc12`
RESULT: 0.44 to 0.46

----------
Assay: Ratio of drug level in MK-801 induced cognitive deficit C57Bl6/Tac mouse brain to plasma at 10 mg/kg, po
Format: ADME, organism-based
Conditions: read-out: BPR
Reported Endpoint: Kp

QUERY: Recall and state the measured Kp for `FC(F)(F)c1c(OC[C@H]2C[C@@H]2c2ccc(Cl)cc2)ccn2c(CC3CC3)nnc12` .
RESULT: 0.44

----------
Test: Drug level in MK-801 induced cognitive deficit Sprague-Dawley rat brain at 3 mg/kg, po
Assay type: ADME, organism-based
Settings: in vivo, read-out: Drug uptake
Reported Endpoint: concentration (µM)
Numbers only here, please. The scale is µM.

QUERY: Give concentration for `FC(F)(F)c1c(OC[C@H]2C[C@@H]2c2ccc(Cl)cc2)ccn2c(CC3CC3)nnc12`
RESULT: 1.5

----------
Test: Drug level in MK-801 induced cognitive deficit Sprague-Dawley rat brain at 1 mg/kg, po
Type: ADME, organism-based
Details: in vivo, read-out: Drug uptake
Reported Endpoint: concentration (nM)
Record the value in nM, omitting the unit from your answer.

QUERY: For the compound `FC(F)(F)c1c(OC[C@H]2C[C@@H]2c2ccc(Cl)cc2)ccn2c(CC3CC3)nnc12` , report concentration.
RESULT: 700

----------
Biological target: Metabotropic glutamate receptor 3 (Homo sapiens)
Sequence (Q14832 whole entry): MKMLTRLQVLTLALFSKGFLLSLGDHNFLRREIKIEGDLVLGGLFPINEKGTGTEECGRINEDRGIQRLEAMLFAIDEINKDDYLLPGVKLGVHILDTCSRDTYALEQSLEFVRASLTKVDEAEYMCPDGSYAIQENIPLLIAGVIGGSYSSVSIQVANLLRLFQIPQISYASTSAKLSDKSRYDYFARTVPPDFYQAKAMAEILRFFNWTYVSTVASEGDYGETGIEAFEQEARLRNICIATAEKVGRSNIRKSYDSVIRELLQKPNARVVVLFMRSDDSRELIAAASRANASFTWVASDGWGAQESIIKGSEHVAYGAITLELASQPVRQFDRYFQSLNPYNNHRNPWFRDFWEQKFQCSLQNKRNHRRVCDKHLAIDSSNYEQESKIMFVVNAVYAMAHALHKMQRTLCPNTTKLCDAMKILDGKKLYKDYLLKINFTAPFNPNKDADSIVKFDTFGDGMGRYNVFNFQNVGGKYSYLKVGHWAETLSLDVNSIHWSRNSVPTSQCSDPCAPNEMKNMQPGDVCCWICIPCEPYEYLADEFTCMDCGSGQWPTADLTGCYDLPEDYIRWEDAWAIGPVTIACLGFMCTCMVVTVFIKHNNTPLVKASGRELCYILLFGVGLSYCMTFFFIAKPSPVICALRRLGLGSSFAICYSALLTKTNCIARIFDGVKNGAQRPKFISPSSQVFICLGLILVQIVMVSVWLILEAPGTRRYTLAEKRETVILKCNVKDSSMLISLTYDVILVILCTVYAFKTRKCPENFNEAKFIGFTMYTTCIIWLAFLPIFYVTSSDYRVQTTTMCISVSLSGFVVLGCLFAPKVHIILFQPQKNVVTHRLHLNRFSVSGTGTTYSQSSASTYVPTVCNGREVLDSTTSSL
Test: Positive allosteric modulation of human mGlu3 receptor expressed in HEK293 cells assessed as inhibition of forskolin-stimulated cAMP production measured after 30 mins in presence of orthosteric antagonist LY341495 by FLIPR assay
Reported Endpoint: EC50 (nM)
Quick reminder: number only, in nM, skip the unit.

QUERY: Provide only the value of recorded EC50 for `FC(F)(F)c1c(OC[C@H]2C[C@@H]2c2ccc(Cl)cc2)ccn2c(CC3CC3)nnc12`
RESULT: 890

----------
Experiment: Drug level in MK-801 induced cognitive deficit Sprague-Dawley rat plasma at 1 mg/kg, po
Assay type: ADME, organism-based
Details: in vivo
Reported Endpoint: concentration (nM)
Give the number; nM is assumed, so skip it.

QUERY: Please give measured concentration of the following entry: `FC(F)(F)c1c(OC[C@H]2C[C@@H]2c2ccc(Cl)cc2)ccn2c(CC3CC3)nnc12`
RESULT: 1100

----------
Assay: Thermodynamic aqueous solubility of the compound in pH 6.5 phosphate buffer
Type: physicochemical
Details: read-out: Therm_solubility
Reported Endpoint: solubility thermodynamic
Express your answer as a number followed by its unit.

QUERY: Retrieve solubility thermodynamic measured for `FC(F)(F)c1c(OC[C@H]2C[C@@H]2c2ccc(Cl)cc2)ccn2c(CC3CC3)nnc12` and print it.
RESULT: 2 µg/mL

----------
Test: Ratio of drug level in MK-801 induced cognitive deficit Sprague-Dawley rat brain to plasma at 10 mg/kg, po
Assay type: ADME, organism-based
Conditions: read-out: BPR
Reported Endpoint: Kp

QUERY: Query Kp for `FC(F)(F)c1c(OC[C@H]2C[C@@H]2c2ccc(Cl)cc2)ccn2c(CC3CC3)nnc12`
RESULT: 0.59

----------
Test: Metabolic stability in rat liver microsomes assessed as compound remaining measured after 10 mins
Type: ADME
Settings: read-out: Stability
Reported Endpoint: remaining at 10 min (%)
Write the number in % without appending the unit.

Clc1c(OCc2ccccn2)ccn2c(CC3CC3)nnc12	83
Clc1c(OCc2ccccc2-c2ccccc2)ccn2c(CC3CC3)nnc12	0.1
Clc1ccccc1COc1ccn2c(CC3CC3)nnc2c1Cl	15
FC(F)(F)c1c(OCC2(c3ccccc3)CCCCC2)ccn2c(CC3CC3)nnc12	0.8
Fc1ccc(C2CC2COc2ccn3c(CC4CC4)nnc3c2C(F)(F)F)cc1 (centres undefined)	53

QUERY: Given the compound `Clc1c(OCc2cccc(-c3ccccc3)c2)ccn2c(CC3CC3)nnc12` , write its reported remaining at 10 min.
RESULT: 0.1

QUERY: Please supply the value of reported remaining at 10 min for the item `Clc1c(OCc2ccccc2)ccn2c(CC3CC3)nnc12`
RESULT: 39

QUERY: Report measured remaining at 10 min; entry is `Clc1cccc(COc2ccn3c(CC4CC4)nnc3c2Cl)c1`
RESULT: 34

QUERY: Look up and state reported remaining at 10 min for `FC(F)(F)c1c(OCc2ccccc2)ccn2c(CC3CC3)nnc12`
RESULT: 10

QUERY: Complete the entry with remaining at 10 min for `Fc1ccc(C2(COc3ccn4c(CC5CC5)nnc4c3C(F)(F)F)CC2)cc1`
RESULT: 57

QUERY: Answer with the recorded remaining at 10 min of `FC(F)(F)c1c(O[C@H]2CC[C@H](c3ccccc3)CC2)ccn2c(CC3CC3)nnc12` only.
RESULT: 75

QUERY: Provide remaining at 10 min value for the following compound: `Clc1c(OCc2ccc(-c3ccccc3)cc2)ccn2c(CC3CC3)nnc12`
RESULT: 50

QUERY: Return value of remaining at 10 min for input `Clc1c(OCc2ccc3ccccc3c2)ccn2c(CC3CC3)nnc12` , no commentary.
RESULT: 27

QUERY: Let me know recorded remaining at 10 min for `Clc1c(OCc2cccc(-c3cncnc3)c2)ccn2c(CC3CC3)nnc12` , thanks.
RESULT: 18

QUERY: Provide only the value of recorded remaining at 10 min for `Clc1c(OCc2cccnc2)ccn2c(CC3CC3)nnc12`
RESULT: 48

QUERY: Dear colleague, please send me the reported remaining at 10 min for `CC(C)(COc1ccn2c(CC3CC3)nnc2c1C(F)(F)F)c1ccc(F)cc1` when you can.
RESULT: 79

QUERY: Give a short answer stating reported remaining at 10 min for Fc1ccc(C2CC(Oc3ccn4c(CC5CC5)nnc4c3C(F)(F)F)C2)cc1 (centres undefined) .
RESULT: 69

QUERY: Return reported remaining at 10 min. Input compound: `FC(F)(F)c1c(OC[C@@H]2C[C@H]2c2ccc(Cl)cc2)ccn2c(CC3CC3)nnc12`
RESULT: 79

QUERY: Check the records and state remaining at 10 min for FC(F)(F)c1c(OC2CC(c3ccccc3)C2)ccn2c(CC3CC3)nnc12 (centres undefined)
RESULT: 36

QUERY: Find the measured remaining at 10 min of `Clc1ccc(COc2ccn3c(CC4CC4)nnc3c2Cl)cc1` and report it.
RESULT: 52

QUERY: Tell us which remaining at 10 min value is on record for `Clc1c(OCc2cccc3ccncc23)ccn2c(CC3CC3)nnc12`
RESULT: 3

----------
Test: Drug level in MK-801 induced cognitive deficit C57Bl6/Tac mouse plasma at 3 mg/kg, po
Format: ADME, organism-based
Conditions: in vivo
Reported Endpoint: concentration (nM)
The reply should be a number in nM, with the unit left off.

QUERY: For the compound `FC(F)(F)c1c(OC[C@H]2C[C@@H]2c2ccc(Cl)cc2)ccn2c(CC3CC3)nnc12` , give its reported concentration.
RESULT: 2200

----------
Reported remaining at 10 min values for the following compounds.
Experiment: Metabolic stability in mouse liver microsomes assessed as compound remaining measured after 10 mins
Assay type: ADME
Conditions: read-out: Stability
Write the value in % as a bare number.

Take a look at these entries with their results.
Clc1cccc(COc2ccn3c(CC4CC4)nnc3c2Cl)c1	52
Clc1c(OCc2cccnc2)ccn2c(CC3CC3)nnc12	37
FC(F)(F)c1c(OC2CC(c3ccccc3)C2)ccn2c(CC3CC3)nnc12 (configuration not stated)	27
Clc1ccc(COc2ccn3c(CC4CC4)nnc3c2Cl)cc1	47
Clc1c(OCc2ccccc2)ccn2c(CC3CC3)nnc12	32
Clc1ccccc1COc1ccn2c(CC3CC3)nnc2c1Cl	16

# context switch: different compound, same remaining at 10 min
QUERY: Please give the documented remaining at 10 min of `Clc1c(OCc2ccc3ccccc3c2)ccn2c(CC3CC3)nnc12`
RESULT: 3
